Tested on: Plasmodium berghei
Assay: Luciferase/luciferin-expressing antifolate-resistant parasites were used to infect a culture of HepG2 cells that were pre-incubated with compounds. Infected hepatocytes emit light due to the luciferase reaction. Assay results are presented as the percent inhibition of light emission compared to control. […]
Format: functional
Conditions: sporozoite, read-out: LUCIFERASE INFECTION ASSAY - IC90
Give IC90 for every item shown.

Item under review: CC(C)C(=O)NC1CCCC(C)C1C (stereo not drawn) . Reported IC90? > 2 µM

Next up: COc1ccc(NS(=O)(=O)c2ccc3oc(SC(C)C(=O)N4CCNC4=O)nc3c2)cc1 (stereo not drawn) > 10 µM

Next up: c1ccc(C(Sc2ncnc3sccc23)c2ccccc2)cc1 > 10 µM

Next up: Clc1ccc2c(NCc3ccc(N4CCOCC4)nc3)ncnc2c1 > 10 µM

Next up: CCc1nnc(S)n1/N=C/c1c(C)nn(-c2ccccc2)c1Cl 0.704 µM

Next up: CC(C)c1ccc(CSc2nnc(CC3CCS(=O)(=O)C3)o2)cc1 (stereo not drawn) > 10 µM

Next up: Cc1cc(-n2c(C)cc(C(=O)COc3ccccc3C#N)c2C)no1 > 10 µM

Next up: CCSC1=N/C(=C\c2cc(C(C)(C)C)c(O)c(C(C)(C)C)c2)C(=O)S1 > 8.74 µM

Next up: Cc1cc(Cl)ccc1OCCCC(=O)NCCn1c(C)nc2ccccc21 > 10 µM

Next up: CNc1nc2cnc(Nc3cccc(C(C)C)c3)cc2n1CC1CC1 9.92 µM

Next up: O/N=C1\CC(c2ccccc2)Sc2ccccc21 (stereo not drawn) > 12.9 µM

Next up: O=C(Nc1ccc(F)cc1)C(Sc1nnc(-c2cccs2)[nH]1)c1ccccc1 (stereo not drawn) > 10 µM

Next up: CC(C)c1ccc(CN2CCN(C(=O)CNC(=O)c3ccc(Br)o3)CC2)cc1 > 10 µM

Next up: CC(C)c1nc2ccccc2n1Cc1cccc2ccccc12 4.17 µM

Next up: O=C(CCc1ccc2c(c1)OCO2)Nc1nc(-c2ccc(Br)s2)cs1 > 10 µM

Next up: Clc1ccccc1C(CNc1ncnc2sccc12)N1CCCC1 (stereo not drawn) > 10 µM

Next up: CCN(c1ccccc1)S(=O)(=O)c1ccc(Cl)c(NC(=O)Nc2ccc(Cl)cc2C#N)c1 7.06 µM

Next up: CC(C)(C)OC(=O)Nc1ccc(C(=O)NCC2(c3ccccc3)CC2)cc1 > 10 µM

Next up: CSc1nnc(-c2ccc(C(C)(C)C)cc2)n1C > 12.6 µM

Next up: O=C1N/C(=N\C2CCCC2)S/C1=C\c1ccc2c(c1)OCCO2 7.77 µM

Next up: Cc1c2cnn(C)c(=O)c2c(C)n1-c1ccccc1 > 13 µM

Next up: c1ccc2c(C3=NN=C(NC4CCCCC4)SC3)c[nH]c2c1 > 10 µM

Next up: Cc1nn(Cc2ccccc2)c(Cl)c1C(=O)Nc1nnc(-c2ccccc2)o1 4.08 µM

====

Test system: Plasmodium berghei
Assay: Luciferase/luciferin-expressing antifolate-resistant parasites were used to infect a culture of HepG2 cells that were pre-incubated with compounds. Infected hepatocytes emit light due to the luciferase reaction. Assay results are presented as the percent inhibition of light emission compared to control. […]
Type: functional
Conditions: sporozoite, FFLUC_HILL_SLOPE 11.3, FFLUC_R_SQUARED 0.363, PBLUC_HILL_SLOPE 2.42, PBLUC_R_SQUARED 0.455, read-out: LUCIFERASE INFECTION ASSAY - IC50
measurement_type: IC50 (µM)
# number only, unit µM dropped from output

Item under review: Cc1nc(SC(C)C(=O)c2c[nH]c3ccccc23)c2c(=O)n(C)c(=O)n(CC(C)C)c2n1 (stereo unspecified) . Reported IC50? 7.35
